Where do the numbers come from? From patent US20030032813A1.

Can you tell me % cAMP (Test conc. 50 μM) for the items I'm about to list?
Test system: adenylate cyclase
Experiment: assay for the capability of stimulating cyclic adenylate cyclase (cAMP formation)
Type: biochemical
Give bare numbers, in %.

Solved cases below.
O=C(O)CN1C(=O)C(=CC=CC=Cc2cc3ccccc3s2)SC1=S: 10
O=C(O)CN1C(=O)C(=CC=Cc2cc3ccccc3s2)SC1=S: 8
CC(C=CC1=C(C)CCCC1(C)C)=CC=C1SC(=S)N(CC(=O)O)C1=O: 30
CC(C=CC1=C(C)CCCC1(C)C)=C1SC(=S)N(CC(=O)O)C1=O: 10

Next:
Query: // fetch % cAMP (Test conc. 50 μM); item: CC1=C(C=C2SC(=S)N(CCC(=O)O)C2=O)C(C)(C)CCC1 ; system: adenylate cyclase
Response: 15

====

measure.name: melting point

Study these solved cases before continuing.
O=C(O)CN1C(=O)C(=CC=CC=Cc2cc3ccccc3s2)SC1=S: > 240 °C
O=C(O)CN1C(=O)C(=Cc2ccc(O)c(C(=O)O)c2)SC1=S: > 260 °C

Below are 8 compounds. Give each one its melting point.
1. CC(C)(C)c1cc(C=CC=C2SC(=S)N(CC(=O)O)C2=O)cc(C(C)(C)C)c1O
2. O=C(O)CN1C(=O)C(=CC2CCN(C(=O)OCc3ccccc3)CC2)SC1=S
3. O=C(O)CN1C(=O)C(=CCCc2ccccc2)SC1=S
4. CCCCN(CCCC)c1ccc(C=C2SC(=S)N(CC(=O)O)C2=O)cc1
5. Cc1[nH]c2ccccc2c1C=C1SC(=S)N(CC(=O)O)C1=O
6. O=C(O)CCN1C(=O)C(=CC=Cc2cc3ccccc3s2)SC1=S
7. CC(=O)Nc1ccc2sc(C=C3SC(=S)N(CC(=O)O)C3=O)cc2c1
8. O=C(O)CN1C(=O)C(=Cc2ccc(O)c(O)c2O)SC1=S

Response:
1: > 240 °C; 2: 114 to 115 °C; 3: 108 to 111 °C; 4: 186 to 188 °C; 5: 268 to 270 °C; 6: 246 to 248 °C; 7: > 240 °C; 8: 263 °C (dec.)

Provide each entry's melting point from the list below.
1. CCCCCc1ccc(C=C2SC(=S)N(CC(=O)O)C2=O)cc1
2. O=C(O)CN1C(=O)C(=Cc2ccc3c(c2)CCO3)SC1=S
3. COc1cc(O)c(C=C2SC(=S)N(CC(=O)O)C2=O)c(OC)c1
4. CC(C)(C)c1cc(C=C2SC(=S)N(C(Cc3ccccc3)C(=O)O)C2=O)cc(C(C)(C)C)c1O (stereo not shown)
5. COC(=O)CN1C(=O)C(=Cc2cc(C(C)(C)C)c(O)c(C(C)(C)C)c2)SC1=S
6. O=C(O)CN1C(=O)C(=Cc2ccc(OCc3ccccc3)c(OCc3ccccc3)c2)SC1=S

Response:
["160 to 162 °C", "246 to 247 °C", "194 °C (dec.)", "160 °C (dec.)", "165 to 170 °C", "187 to 188 °C"]

====

measure.name: melting point

CC(C=CC1=C(C)CCCC1(C)C)=C1SC(=S)N(CC(=O)O)C1=O: 100 °C (dec.)

Here are 5 compounds. What values of melting point were reported for them?
1. CC(C)(C)c1cc(C=C2SC(=S)N(C(Cc3c[nH]c4ccccc34)C(=O)O)C2=O)cc(C(C)(C)C)c1O (stereo not shown)
2. O=C(O)CCCCCN1C(=O)C(=Cc2cc(O)c(O)c(O)c2)SC1=S
3. COc1ccc(COc2ccc(C=C3SC(=S)N(CC(=O)O)C3=O)cc2)cc1
4. CC(C)(C)c1cc(C=C2SC(=S)N(CC(=O)O)C2=O)ccc1O
5. O=C(O)CC(C(=O)O)N1C(=O)C(=Cc2cc3ccccc3s2)SC1=S (stereo not shown)

Response:
["140 °C (dec.)", "212 to 214 °C", "172 to 173 °C", "> 240 °C", "240 °C (dec.)"]

Query: Read the entry CN1C(=O)C(=Cc2cc(C(C)(C)C)c(O)c(C(C)(C)C)c2)SC1=S and write its reported melting point.
Response: > 240 °C
